Assay: in vivo;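 further: drug levels in plasma and homogenized choroid/sclera and retina quantified by LC/MS/MS, parameters derived from mean concentrations, t1/2 from terminal log-linear slope, AUC via linear trapezoids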
Conditions: rat, in vivo, topical or ocular, Cmax, plasma, single ocular instillation, regorafenib 21.2 mg/mL or pazopanib 4.9 mg/mL, 10 μL/eye
ASSAY READOUT: Cmax (ng/mL)
Please state the figure in ng/mL; there is no need to write the unit.

Data request, read-out Cmax, for CNC(=O)c1cc(Oc2ccc(NC(=O)Nc3ccc(Cl)c(C(F)(F)F)c3)c(F)c2)ccn1.O [Regorafenib]
38.6

###

Assay: in vivo
Details: rat, in vivo, topical or ocular, t1/2, rat, choroid/sclera of dosed eye; single ocular instillation, regorafenib 21.2 mg/mL or pazopanib 4.9 mg/mL, 10 μL/eye
ASSAY READOUT: half-life (h)
Enter your answer as a number in h; do not include the unit.

Field request: half-life | item: CNC(=O)c1cc(Oc2ccc(NC(=O)Nc3ccc(Cl)c(C(F)(F)F)c3)c(F)c2)ccn1.O [Regorafenib]
29.7
